Source of measurements: patent US20060058231A1

System tested: T1, BMPRII receptor-Fc fusion (UniProt Q13873 27-151, limits assumed)
T1 construct: BMP receptor-Fc fusion used at 5 ug/mL
T1 sequence (looked up): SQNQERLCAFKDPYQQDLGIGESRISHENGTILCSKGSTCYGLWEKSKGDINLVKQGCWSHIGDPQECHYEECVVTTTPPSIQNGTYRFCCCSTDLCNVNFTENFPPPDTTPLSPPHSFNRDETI
Measurement protocol: ELISA-like plate assay, captured BMP-7 from conditioned media, receptor-Fc detection
# BMPRII binding (relative to wild type = 1.0) listing for each entry below

BMPRII binding (relative to wild type = 1.0) measured on BMP-7 variant Y78S (ligand, In conditioned media; numbering on mature BMP-7) STGGKQRSQNRSKTPKNQEALRMASVAENSSSDQRQACKKHELYVSFRDLGWQDWIIAPEGYAAYYCEGECAFPLNSSMNATNHAIVQTLVHFINPETVPKPCCAPTQLNAISVLYFDDSSNVILKKYRNMVVRACGCH = 1.77 relative to wild type

BMPRII binding (relative to wild type = 1.0) measured on BMP-7 variant Y78R (ligand, In conditioned media; numbering on mature BMP-7) STGGKQRSQNRSKTPKNQEALRMASVAENSSSDQRQACKKHELYVSFRDLGWQDWIIAPEGYAAYYCEGECAFPLNSRMNATNHAIVQTLVHFINPETVPKPCCAPTQLNAISVLYFDDSSNVILKKYRNMVVRACGCH = 3.13 relative to wild type

BMPRII binding (relative to wild type = 1.0) measured on BMP-7 variant F73N (ligand, In conditioned media; numbering on mature BMP-7) STGGKQRSQNRSKTPKNQEALRMASVAENSSSDQRQACKKHELYVSFRDLGWQDWIIAPEGYAAYYCEGECANPLNSYMNATNHAIVQTLVHFINPETVPKPCCAPTQLNAISVLYFDDSSNVILKKYRNMVVRACGCH = 0.85 relative to wild type

BMPRII binding (relative to wild type = 1.0) measured on BMP-7 variant V26E (ligand, In conditioned media; numbering on mature BMP-7) STGGKQRSQNRSKTPKNQEALRMASEAENSSSDQRQACKKHELYVSFRDLGWQDWIIAPEGYAAYYCEGECAFPLNSYMNATNHAIVQTLVHFINPETVPKPCCAPTQLNAISVLYFDDSSNVILKKYRNMVVRACGCH = 0.73 relative to wild type
